Could you please report measured % Cell Viability for the items listed next?
Test system: human Hep G2 cells (ATCC HB-8065)
Test: Cytotoxicity in Hep G2 cells (CellTiter-Glo)
Assay type: cell-based
Details: Hep G2 cells, 100 μM test article, 24-hour exposure
Give bare numbers, in %.

> print(dat)
                                   molecule  reported.measurement
1  Cc1ccc(N2CCN(C)CC2)cc1C(=O)N[C@H](C)c1cccc(-c2cc[nH]n2)c1                  82.7
2  COc1ccc([C@@H](C)NC(=O)c2cc(N3CC4CN(C)CC4C3)ccc2C)cc1OC (some centres unmarked)                  96.5
3  Cc1ccc(N2CCN(C)CC2)cc1C(=O)N[C@H](C)c1cccc(C(O)CO)c1 (some centres unmarked)                 107.0
4  CNC(=O)c1cccc(-c2cccc([C@@H](C)NC(=O)c3cc(N4CCN(C)CC4)ccc3C)c2)c1                  86.9
5  Cc1ccc(N2CCN(C)CC2)cc1C(=O)N[C@H](C)c1cccc(-c2ccc(C(O)CO)cc2)c1 (some centres unmarked)                  59.1
6  COc1ccc([C@@H](C)NC(=O)c2cc(N3CC4(CCNCC4)C3)ccc2C)cc1-c1cnn(C)c1                  81.8
7  Cc1ccc(N2CCN(C)CC2)cc1C(=O)N[C@H](C)c1cccc(-c2cccc(C(C)(C)O)c2)c1                  59.5

Exam item: Bench note: what % Cell Viability did `COc1ccc([C@@H](C)NC(=O)c2cc(N3CCN(C)CC3)ccc2C)cc1-c1cnn(C)c1` show?
Marked response: 105.8

###

Could you please report measured IC50 for the items listed next?
Target: SARS-CoV-2 PLpro (Severe acute respiratory syndrome coronavirus 2, UniProt P0DTD1)
Construct: containing 60 nM papain-like protease
Experiment: biochemical
Conditions: 60 nM papain-like protease, 50 μM Z-RLRGG-AMC, pH 7.5, 37° C.; read-out: SARS-CoV-2 PLpro IC50
Counter-ions that a name gives are not always drawn.

Known IC50 results, listed for orientation:
> print(dat)
                                   molecule  test.readout  reported.measurement
1  Cc1ccc(N2CCN(C)CC2)cc1C(=O)N[C@H](C)c1cccc(-c2cccc(C(C)(C)O)c2)c1 [Example 45]          IC50                < 2 µM
2  Cc1ccc(N2CCN(C)CC2)cc1C(=O)N[C@H](C)c1cc(OCCO)cc(-c2cnn(C)c2)c1 [Example 281]          IC50                < 2 µM
3  Cc1ccc(N2CCN(C)CC2)cc1C(=O)N[C@H](C)c1cccc(C(=O)NC[C@H](O)CO)c1 [Example 309]          IC50                < 5 µM

List reported IC50 for each of these molecules:
1. COc1cc(-c2cnn(C)c2)cc([C@@H](C)NC(=O)c2cc(N3CCN(CC4CC4)CC3)ccc2C)c1 [Example 245]
2. Cc1ccc(N2CC3(CN(CCC(=O)O)C3)C2)cc1C(=O)N[C@H](C)c1cccc2ccccc12 [Example 168]
3. COc1ccc([C@@H](C)NC(=O)c2cc(N3CCN(C)CC3)ccc2C)cc1 [Example 30]
4. Cc1ccc(N2CCN(C)CC2)nc1C(=O)N[C@H](C)c1cccc2ccccc12 [Example 15, hydrochloride]

Marked response:
1. < 2 µM
2. < 5 µM
3. < 10 µM
4. < 10 µM

###

Target: SARS-CoV-2 PLpro (Severe acute respiratory syndrome coronavirus 2)
Construct: containing 60 nM papain-like protease
Assay: biochemical
Could you please report measured IC50 for the items listed next?

> print(dat)
                                 mol.smiles                           target.of.assay  test.readout  reported.measurement
1  COc1ccc([C@@H](C)NC(=O)c2cc(N3C[C@H]4CC[C@@H](C3)N4C)ccc2C)cc1OC  SARS-CoV-2 PLpro (Severe acute respiratory syndrome coronavirus 2)          IC50             < 2000 nM
2  COc1ccc([C@@H](C)NC(=O)c2cc(N3[C@@H]4CC[C@H]3CN(C)C4)ccc2C)cc1OC  SARS-CoV-2 PLpro (Severe acute respiratory syndrome coronavirus 2)          IC50           < 100000 nM
3  COc1cc(-c2cn(C)nc2C)cc([C@@H](C)NC(=O)c2cc(N3C[C@H]4CC[C@@H](C3)N4)ccc2C)c1  SARS-CoV-2 PLpro (Severe acute respiratory syndrome coronavirus 2)          IC50             < 2000 nM

Exam item: Bench note: what IC50 did `COc1cc(-c2cnn(C)c2)cc([C@@H](C)NC(=O)c2cc(N3C[C@H]4CC[C@@H](C3)N4)ccc2C)c1` show?
Marked response: < 2000 nM

###

Molecular target: SARS-CoV-2 PLpro (Severe acute respiratory syndrome coronavirus 2, UniProt P0DTD1)
Construct: containing 60 nM papain-like protease
Assay: biochemical
Details: 60 nM papain-like protease, 50 μM Z-RLRGG-AMC, pH 7.5, 37° C.; read-out: SARS-CoV-2 PLpro IC50
test.readout: IC50

> print(dat)
                                   compound  test.readout  reported.measurement
1  Cc1ccc(N2CCN(CCC(=O)O)CC2)cc1C(=O)N[C@H](C)c1cccc(-c2cccc(CO)c2)c1          IC50             < 5000 nM

List reported IC50 for each of these compounds:
1. COc1cc(-c2cn(C)nc2C)cc([C@@H](C)NC(=O)c2cc(N3CCN(C)CC3)ccc2C)c1
2. Cc1ccc(N2CC[C@H](O)C2)cc1C(=O)N[C@H](C)c1cccc2ccccc12
3. Cc1ccc(N2CCN(C)CC2)cc1C(=O)N[C@H](C)c1cccc(-c2c(C)n[nH]c2C)c1
4. Cc1ccc(N2CCN(C)CC2)c(C)c1C(=O)N[C@H](C)c1cccc2ccccc12
5. COc1ccc([C@@H](C)NC(=O)c2cc(N3CCN(C)CC3)ccc2C)cc1-c1ccn(C)n1
6. COc1ccc([C@@H](C)NC(=O)c2cc(N3CCN(C)CC3)ccc2C)cc1-c1nnc(C)s1
7. Cc1ccc(N2CCN(C)CC2)cc1C(=O)N[C@H](C)c1cccc(-c2cccc(=O)[nH]2)c1

Marked response:
1. < 2000 nM
2. < 100000 nM
3. < 2000 nM
4. < 2000 nM
5. < 2000 nM
6. < 2000 nM
7. < 2000 nM

List reported IC50 for each of these compounds:
1. COc1ccc([C@@H](C)NC(=O)c2cc(N3CCN(C)CC3)ccc2C)cc1-c1ccncc1
2. COc1ccc([C@@H](C)NC(=O)c2cc(N3CCNC4(CC4)C3)ccc2C)cc1-c1cnn(C)c1

Marked response:
< 2000 nM
< 5000 nM

###

System: human Hep G2 cells (ATCC HB-8065)
Assay: Cytotoxicity in Hep G2 cells (CellTiter-Glo)
Assay type: cell-based
Settings: Hep G2 cells, 100 μM test article, 24-hour exposure
Structures can show the parent of a compound that is named as a salt.
Could you please report measured % Cell Viability for the items listed next?
Answers are plain numbers, in %.

Known % Cell Viability results, listed for orientation:
> print(dat)
                                   molecule  reported.measurement
1  Cc1ccc(N2CCN(C)CC2)cc1C(=O)N[C@H](C)c1cccc(-c2ccccc2)c1                   1.0
2  COc1ccc([C@@H](C)NC(=O)c2cc(N3CCN(C)CC3)ccc2C)cc1Cl                  84.9
3  Cc1ccc(N2CCN(C)CC2)cc1C(=O)N[C@H](C)c1cccc(-c2ccsc2)c1                   2.3
4  Cc1ccc(N2CCN(C)CC2)cc1C(=O)N[C@H](C)c1cccc(-c2ccc(CNC3CCCC3)s2)c1 [Example 78, Dihydrochloride Salt]                   1.3
5  COc1ccc([C@@H](C)NC(=O)c2cc(N3CC4CNCC4C3)ccc2C)cc1OC (stereo partly shown)                  98.0

List reported % Cell Viability for each of these molecules:
1. COc1cc(-c2cnn(C)c2)cc([C@@H](C)NC(=O)c2cc(N3CCN4CCCC4C3)ccc2C)c1 (stereo partly shown)
2. Cc1ccc(N2CCS(=O)(=O)CC2)cc1C(=O)N[C@H](C)c1cccc2ccccc12
3. COc1ccc([C@@H](C)NC(=O)c2cc(N3CCN(C)CC3)ccc2C)cc1-c1csc(C(=O)N(C)C)c1
4. COc1ccc([C@@H](C)NC(=O)c2cc(N3CCN(C)CC3)ccc2C)cc1-c1ccn(C)n1

Marked response:
1: 70.9; 2: 82.8; 3: 72.2; 4: 103.7

List reported % Cell Viability for each of these molecules:
1. Cc1ccc(N2CCN(C)CC2)cc1C(=O)N[C@H](C)c1cccc(C(=O)N(C)C)c1
2. Cc1ccc([C@@H](C)NC(=O)c2cc(N3CCN(C)CC3)ccc2C)cc1Br
3. Cc1ccc(N2CCN(C)CC2)cc1C(=O)N[C@H](C)c1cccc(C(=O)NC[C@H](O)CO)c1

Marked response:
1: 130.7; 2: 4.7; 3: 118.2

List reported % Cell Viability for each of these molecules:
1. Cc1ccc(N2CCN(C)CC2)cc1C(=O)N[C@H](C)c1ccc(O)c(-c2cnn(C)c2)c1
2. COCCOc1ccc([C@@H](C)NC(=O)c2cc(N3CCN(C)CC3)ccc2C)cc1-c1cnn(C)c1
3. COc1ccc([C@@H](C)NC(=O)c2cc(C3CCN(C)CC3)ccc2C)cc1-c1cnn(C)c1
4. COc1ccc([C@@H](C)NC(=O)c2cc(N3CCN(C)CC3)ccc2C)cc1C1CCN(CCC(=O)O)CC1

Marked response:
1. 81.6
2. 76.7
3. 74.7
4. 119.7
